Item-by-item account of Kd
target: human CD33 R69G (human) (UniProt P20138); test: SPR, Fab captured, 37C
Sequence (P20138 18-259 R69G): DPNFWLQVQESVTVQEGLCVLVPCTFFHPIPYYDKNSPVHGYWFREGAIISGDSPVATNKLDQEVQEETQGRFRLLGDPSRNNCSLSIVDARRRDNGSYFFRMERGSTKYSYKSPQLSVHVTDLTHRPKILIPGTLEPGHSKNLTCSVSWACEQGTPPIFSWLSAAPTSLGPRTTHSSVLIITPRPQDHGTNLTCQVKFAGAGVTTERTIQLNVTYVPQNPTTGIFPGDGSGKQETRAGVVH
Return type: number; implicit unit nM.

Binder	Reading unit	Kd
ADI-11825 Fab (Fab, V domains shown) VH: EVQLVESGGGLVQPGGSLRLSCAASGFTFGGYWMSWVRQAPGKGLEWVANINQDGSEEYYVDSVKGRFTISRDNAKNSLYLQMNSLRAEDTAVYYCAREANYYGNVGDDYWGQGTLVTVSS VL: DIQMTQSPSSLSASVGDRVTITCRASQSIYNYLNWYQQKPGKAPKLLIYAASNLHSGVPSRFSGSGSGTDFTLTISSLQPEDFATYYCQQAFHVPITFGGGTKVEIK	nM	3.74

// next item, Kd requested
Entry ADI-11809 Fab (Fab, V domains shown) VH: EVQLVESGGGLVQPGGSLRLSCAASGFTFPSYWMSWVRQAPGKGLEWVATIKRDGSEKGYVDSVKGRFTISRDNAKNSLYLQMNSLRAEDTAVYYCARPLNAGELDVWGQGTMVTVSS VL: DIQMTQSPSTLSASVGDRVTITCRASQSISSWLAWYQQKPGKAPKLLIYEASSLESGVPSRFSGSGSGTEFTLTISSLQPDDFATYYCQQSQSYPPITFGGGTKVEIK has what Kd?
0.22
